- Tested on: SNB-75 CNS
- assaySummary: NCI tumour cell line growth inhibition, 48 h
recordedEndpoint: GI50

Previously resolved entries follow.
[[record]]
compound = "CCOC(=O)Nc1ccc(C(=O)/C=C/c2ccccc2)cc1"
target = "SNB-75 CNS"
experimentalresult = "31.6 µM"

[[record]]
compound = "CC(=O)OC1CC2(O)C(CCC3(C)C(c4ccc(=O)oc4)CCC32O)C2(C)CCC(OC3OC(CO)C(O)C(O)C3O)C=C12 (stereo not drawn)"
target = "SNB-75 CNS"
experimentalresult = "0.0333 µM"

[[record]]
compound = "COc1ccc(C2SCC(=O)N2NC(=O)C(O)c2ccccc2)cc1 (stereo not drawn)"
target = "SNB-75 CNS"
experimentalresult = "80.9 µM"

[[record]]
compound = "C[n+]1cc2cc3c(cc2c2ccccc21)OCO3"
target = "SNB-75 CNS"
experimentalresult = "2.22 µM"

[[record]]
compound = "CCCC(CCC)Oc1ccc(CCCC2=C(O)c3ccccc3C(=O)C2=O)cc1"
target = "SNB-75 CNS"
experimentalresult = "11.3 µM"

[[record]]
compound = "CNC(C)[C@H]1CCC2C3CCC4C[C@@H](N(C)C(=O)c5ccccc5)CC[C@]4(C)C3CC[C@@]21C (stereo partly drawn)"
target = "SNB-75 CNS"
experimentalresult = "1.97 µM"

[[record]]
compound = "COc1cc2oc(-c3cccc(C(=O)Nc4ccc(C)cc4)c3)cc(=O)c2c(OC)c1OC"
target = "SNB-75 CNS"
experimentalresult = "1.16 µM"

[[record]]
compound = "CCCC(=O)O[C@]1(C)CC[C@@H]2[C@H]3[C@@H]1[C@@H]1C/C(C)=C\\CC[C@](C)(OC(=O)[C@@H]2C)[C@H]3O1"
target = "SNB-75 CNS"
experimentalresult = "> 100 µM"


Request: Consider the compound `O=C1Nc2ccc(CN3CCOC3=O)cc2/C1=C/c1cc(CN2CCOCC2)c[nH]1` . State its measured GI50.
Result: 52.8 µM

Request: Consider the compound CC(=O)[O][Hg][CH2]C1(C)COC(C)([CH2][Hg][O]C(C)=O)CO1 (stereo not drawn) . State its measured GI50.
Result: 17.7 µM

Request: Consider the compound `NC(=S)N/N=C/c1ccc(OC(=O)COc2ccccc2)cn1` . State its measured GI50.
Result: 10.4 µM

Request: Consider the compound `Cc1ccc(NC(=O)N2CCCCC2)cc1[N+](=O)[O-]` . State its measured GI50.
Result: > 100 µM

###

// reported TGI for each item listed
- System: HT29 colon
- assaySummary: NCI tumour cell line growth inhibition, 48 h
Return type: number; implicit unit µM.

Previously resolved entries follow.
[[record]]
compound = "C[n+]1cc2cc3c(cc2c2ccccc21)OCO3"
experimentalresult = 23

[[record]]
compound = "Cc1cccc2cc3cccc(C(=O)NCCN(C)C)c3nc12"
experimentalresult = 3.94

[[record]]
compound = "O=C1c2ccccc2C(=O)c2sc(Nc3ccc(Cl)cc3)nc21"
experimentalresult = 15.5


Now for another entry.
Request: Consider the compound Oc1cc2c(cc1C(c1ccc3c(c1)OCO3)N1CCN(C(c3ccc4c(c3)OCO4)c3cc4c(cc3O)OCO4)CC1)OCO2 (stereo unspecified) . State its measured TGI.
Result: 18.8

###

- System: LOX IMVI melanoma
- assaySummary: NCI tumour cell line growth inhibition, 48 h
recordedEndpoint: TGI

Previously resolved entries follow.
[[record]]
molecule = "Clc1ccc(-c2nc(C(Cl)Cl)nc3cc(-c4ccccc4)nn23)cc1"
experimentalresult = "> 50 µM"

[[record]]
molecule = "CCOc1ccc(NC(=O)c2cc3ccccc3cc2O)cc1"
experimentalresult = "> 100 µM"

[[record]]
molecule = "Cc1c(-c2ccccc2)c(C#N)c2nnn(C)c(=O)n12"
experimentalresult = "> 100 µM"

[[record]]
molecule = "Cc1ccc(S(=O)(=O)OI(O)CC(F)(F)F)cc1"
experimentalresult = "> 100 µM"

[[record]]
molecule = "Nc1ncc(N)c(NCC2(CO)CC(CCc3ccccc3)C2)n1 (centres undefined)"
experimentalresult = "16.6 µM"


Request: Consider the molecule CN(C)CCN=C1Nc2ccccc2C(=O)N2CSCC12 (centres undefined) . State its measured TGI.
Result: > 100 µM

Request: Consider the molecule `O=C(c1ccc(Cl)c(Cl)c1)N(C(=O)N1CCN(c2ccccc2)CC1)S(=O)(=O)c1ccccc1` . State its measured TGI.
Result: 40.5 µM

Request: Consider the molecule `C=C(C[C@@H](O)[C@H](C)NC(=O)OCc1ccccc1)C(=O)OC(C)(C)C` . State its measured TGI.
Result: > 100 µM

Request: Consider the molecule `CC(=O)Oc1ccccc1C(=O)NCCC[Se]C#N` . State its measured TGI.
Result: 5.26 µM

Request: Consider the molecule `CC[C@H]1C=CCC[C@@]2(C[C@@H]3CC[C@H]4[C@@H](C(=O)OCCCCCCCCCCCCCCCC(=O)N(CCCNC(C)=O)C[C@H](CCNC(C)=O)OC(C)=O)[C@@]5(CCC[C@@H](C)O5)NC(=[N+]34)N2)O1` . State its measured TGI.
Result: 3.16 µM

Request: Consider the molecule CCOC(=O)C1=C(C)N(NC(=O)OC)C2(N)N(NC(=O)OC)C(C)=C(C(=O)OCC)C12C#N (centres undefined) . State its measured TGI.
Result: > 100 µM

Request: Consider the molecule `NC(=NCCO)c1ccc(N2CCCN(c3ccc(C(N)=NCCO)cc3)CC2)cc1` . State its measured TGI.
Result: > 100 µM
